Readings of log10 of Ki for the listed compounds
biological target: rat TAAR1 (Rattus norvegicus (Rat), UniProt Q923Y9); test: Radioligand binding assay on rat TAAR1; conditions: rat TAAR1, membranes of stably transfected HEK-293 cells; second value of the pair; read-out: Ki (μM) mouse/rat: rat
Sequence (Q923Y9 whole entry): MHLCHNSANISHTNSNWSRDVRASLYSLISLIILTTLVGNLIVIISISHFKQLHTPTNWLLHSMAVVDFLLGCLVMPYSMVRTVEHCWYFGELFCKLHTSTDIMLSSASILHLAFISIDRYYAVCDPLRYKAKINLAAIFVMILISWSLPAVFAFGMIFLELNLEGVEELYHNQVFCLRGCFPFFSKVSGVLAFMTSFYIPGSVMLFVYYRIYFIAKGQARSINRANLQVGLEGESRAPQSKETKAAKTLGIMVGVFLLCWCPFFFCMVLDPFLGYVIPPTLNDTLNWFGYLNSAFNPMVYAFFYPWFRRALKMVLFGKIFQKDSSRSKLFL
Could you please treat all values as log10 of Ki in µM?

Below are worked cases with known answers.
Request the reported log10 of Ki associated with Cc1cc(NC(=O)Nc2cccc(Cl)c2)cnc1C1CNCCO1 (racemic)
-0.61

Continue with "O=C(Nc1ccc([C@H]2CNCCO2)nc1)c1[nH]nc(C2CC2)c1Cl"
-1.35

Would you kindly repeat that for "O=C(Nc1ccc([C@@H]2CNCCO2)nc1)c1cccc(Cl)c1" ?
-1.47

What do we get for CCCc1n[nH]c(C(=O)Nc2cnc(C3CNCCO3)c(F)c2)c1Cl (racemic) ?
-1.66

Cool, now "O=C(Nc1ccc([C@H]2CNCCO2)nc1)c1cccc(Cl)c1"
-1.04

// next record "O=C(Nc1ccc([C@@H]2CNCCO2)nc1)c1[nH]nc(C2CC2)c1F"
-1.07

Switching to the query record.
Consider the compound "O=C(Nc1ccc([C@H]2CNCCO2)nc1)c1[nH]nc(C2CC2)c1Br" and give its measured log10 of Ki.
-1.54
